System: SNB-19 CNS
Experiment description: NCI-60 one-dose screen, 48 h
Measurement conditions: 10 µM unless noted
Procedure: Growth inhibition of the SNB-19 human tumor cell line is measured as a screen for anti-cancer activity. Cells are grown in 96 well plates and exposed to the test compound for 48 hours. Compounds are tested at a single concentration, which is 10^-5 M for most compounds. The reported endpoint is percent growth (GI% or GIPRCNT), where numbers from 0 - 100% represent growth inhibition, and numbers from -100% - 0 represent cell death. For example, a value of 40 represents 60% growth inhibition. […]
The panel holds about 83,000 compounds, 20% with a hit somewhere; the sample as a whole holds those more often. Active and inactive are the calls of the source. The calls were made as follows: active = growth percent below 10; inactive = the rest.
Field 'call' accepts active, inactive

What did the test return for COc1ccc(C2CC(c3ccc4c(c3)OCO4)=Nc3c(N)ncnc3N2)cc1 (stereo not drawn) ?
inactive

What do you have for CCCCC(=O)Nc1ncc(Cc2ccccc2Cl)s1 ?
inactive

What do you have for CC[C@H](Nc1nc(N)nc(C)c1C#N)c1nc2cccc(NCCCCCC(=O)NO)c2c(=O)n1-c1ccccc1 ?
inactive

---

System: T-47D breast
Experiment description: NCI-60 one-dose screen, 48 h (100 = growth as untreated, 0 = no growth, -100 = all killed)
Measurement conditions: 10 µM unless noted
Compounds without any hit were thinned out: in the full panel of roughly 83,000, 20% have a hit.
# if value of growth reaches 60%, tag met; if it stays below, tag not met

{"Compound": "C=C1C(=O)O[C@H]2[C@H]1CC/C(COC(=O)/C=C\\C(=O)NCc1ccc(Cn3c(=O)sn(-c4ccccc4)c3=O)cc1)=C\\CC[C@@]1(C)O[C@@H]21", "Discrete label": "met"}

Tell me whether growth is at least 60% here: FC(F)(F)c1[nH]ncc1-c1nc2c(N3CCCCC3)cc3[nH]ncc3c2c2c1CCCC2
not met

What do you have for O=C1CCCc2nc3sc4c(=O)n(-c5ccccc5Cl)nnc4c3cc21 ?
met

What do you have for CCCCn1sc(=O)n(Cc2ccc(CNC(=O)OCc3ccc4c(Cl)cc(Cl)c(O)c4n3)cc2)c1=O ?
met

What do you have for O=C1N[C@@H]2[C@@H](O)[C@@H](O)[C@H](O)C[C@H]2c2cc3c(c(O)c21)OCCO3 ?
not met

What do you have for COc1ccc(C(c2cc(OC)c(OC)c(OC)c2)N2CCCC2)cc1 (centres undefined) ?
met

What do you have for CS(=O)(=O)Nc1cc(-c2ccc3ncnc(Nc4ccc5c(cnn5Cc5cccnc5)c4)c3c2)cnc1Cl ?
not met

What do you have for CCn1cc(C(=O)NN=C2CCCCCC2)c(=O)c2ccc(C)nc21 ?
met

What do you have for Cc1cc2nc(-c3c(-c4ccc(F)cc4)nc4sccn34)[nH]c2cc1C ?
met

---

So I've got a bunch of compounds here, and I need their growth values.
Test system: SK-MEL-28 melanoma
Experiment description: NCI-60 one-dose screen, 48 h (100 = growth as untreated, 0 = no growth, -100 = all killed)
Measurement conditions: 10 µM unless noted
Compounds without any hit were thinned out: in the full panel of roughly 83,000, 20% have a hit.
One number for each entry, in %.

{"Input smiles": "O=C1Nc2ccc(F)cc2/C1=C\\c1nc(-c2ccccc2F)n2ccccc12", "Measured on": "SK-MEL-28 melanoma", "growth, %": 130}
{"Input smiles": "CCOC(=O)C1CCN(c2ccc(N3C[C@@H](CNCc4ccc(C(=N)N)cc4)OC3=O)cc2)CC1", "Measured on": "SK-MEL-28 melanoma", "growth, %": 105}
{"Input smiles": "COc1ccc(C(C)=O)cc1S(N)(=O)=O", "Measured on": "SK-MEL-28 melanoma", "growth, %": 106}
{"Input smiles": "Cc1cc2oc(=O)cc(CP(=O)(O)O)c2cc1O", "Measured on": "SK-MEL-28 melanoma", "growth, %": 98.4}

# next compound below
GET /values?readout=growth&system=SK-MEL-28 melanoma&item= COc1ccc(-c2cn(-c3ccc(Cl)cc3)c(SCC(=O)c3ccc([N+](=O)[O-])cc3)n2)cc1
95.8

---

Test system: NCI/ADR-RES ovarian
Experiment description: NCI-60 one-dose screen, 48 h (100 = growth as untreated, 0 = no growth, -100 = all killed)
Measurement conditions: 10 µM unless noted
The panel holds about 83,000 compounds, 20% with a hit somewhere; the sample as a whole holds those more often.
Reported metric: growth (%)
Numbers only, in %.

Please review the entries below; each comes with its answer.
{"Compound": "COc1ccc2nc(SCC(=O)Nc3ccccc3C)[nH]c2c1", "Reading unit": "%", "growth": 99}
{"Compound": "N#CC(C#N)N=Nc1ccc(Cl)cc1Cl", "Reading unit": "%", "growth": 103}
{"Compound": "CCOC(=O)c1c(C)nc2c(c1N)CC(=O)N2Cc1cc(OC)c(OC)c(OC)c1", "Reading unit": "%", "growth": 17.6}
{"Compound": "Cc1ncc(C(=O)Nc2ccc(CN3CCN(C)CC3)c(C(F)(F)F)c2)cc1C#Cc1cnc(N)c2cnccc12", "Reading unit": "%", "growth": 55.3}
{"Compound": "NC(=O)OCCn1cc(-c2nc(-c3c[nH]c4ncccc34)cs2)c2ccccc21", "Reading unit": "%", "growth": 38.1}

Report growth for each item below.
1. O=C(CBr)CN1C(=O)c2ccccc2C1=O
2. O=C1NC(=Nc2ccc(O)cc2)S/C1=C\c1cccs1
3. Nc1c(C(=O)Nc2ccccn2)sc2nc3c(cc12)C(O)CCC3 (stereo unspecified)
4. O=C1c2cccnc2C(=O)c2c1c(C(=O)OCCCN1CCCCC1)c1ccccn21
5. CCCCCCCC/C=C\CCCCCCCCOc1ccccc1CC(=O)NCC[N+]1(C)CCCCC1
6. CCCCCCCCNc1cc2c3c(c1)CCCN3CCC2

1: 105; 2: 32.1; 3: 17.7; 4: -13.3; 5: 99.3; 6: 70.7

---

System: RPMI-8226 leukemia
Experiment description: NCI-60 one-dose screen, 48 h (100 = growth as untreated, 0 = no growth, -100 = all killed)
Measurement conditions: 10 µM unless noted
The panel holds about 83,000 compounds, 20% with a hit somewhere; the sample as a whole holds those more often.
So I've got a bunch of molecules here, and I need their growth values.
Numbers only, in %.

{"Molecule": "CN1CCN(CCOc2ccc(-c3cnc4c(-c5ccc(C(F)(F)F)cc5)cnn4c3)cc2)CC1", "growth / %": 1.38}
{"Molecule": "CCCCCCCCn1ccc2cc(NC(=O)Cn3cc(CN4CCOCC4)nn3)ccc21", "growth / %": 94.8}

Report growth for each item below.
1. COc1ccc(/C=C/C(=O)c2ccc(Nc3nc(Nc4ccc(F)cc4)nc(Nc4ccc(Cl)cc4)n3)cc2)cc1
2. CC1(C)OC(=O)C(=Cc2cccc(Br)c2)C(=O)O1
3. COP(=O)(OC)c1nnn(-c2cccc([N+](=O)[O-])c2)c1C
4. CCCCCCCCn1ccc2cc(NC(=O)Cn3cc(CN4CCC(C)CC4)nn3)ccc21
5. CCOc1ccc(/C=N\N=C\c2ccc(OCC)cc2)cc1
6. O=c1ccc2nc(C(F)(F)F)nn(-c3ccccc3)c-2c1
7. CCOC(=O)/C=C/c1c(C)[nH]c(=O)[nH]c1=O

58.5
97.4
103
-40.9
107
45.8
110

// growth lookup, key: C=CC1(C)C(O[Si](C)(C)C(C)(C)C)CC2C3OC(=O)NC31c1cccc3c1[C@H](C(=O)N3C)C2(C)C (stereo not given in full)
7.41

---

Tested on: HT29 colon
Experiment description: NCI-60 one-dose screen, 48 h (100 = growth as untreated, 0 = no growth, -100 = all killed)
Measurement conditions: 10 µM unless noted
This is part of a sample that, as a whole, favours compounds with a hit. Of some 83,000 tested, about 20% had one in any assay.
# if value of growth reaches 50%, tag Yes; if it stays below, tag No

For orientation, consider the following solved cases.
{"Compound": "O=C(CCCCNC(=O)c1cc(=O)c(O)co1)Nc1ccccc1", "Discrete label": "Yes"}
{"Compound": "CCN(CC)CCCNCc1cc(-c2ccccc2)nc2cc(Cl)ccc12", "Discrete label": "No"}

Consider the record given below.
Tell me whether growth is at least 50% here: Cc1ccc(/C=C/C(=O)c2ccc(NC(=O)CSc3nc4c([nH]3)c(=O)n(C)c(=O)n4C)cc2)c(C)c1
Yes

---

System: K-562 leukemia
Experiment description: NCI-60 one-dose screen, 48 h (100 = growth as untreated, 0 = no growth, -100 = all killed)
Measurement conditions: 10 µM unless noted
The panel holds about 83,000 compounds, 20% with a hit somewhere; the sample as a whole holds those more often.
Reported metric: growth (%)
Answers are plain numbers, in %.

{"Molecule": "COc1ccc2c(c1)c(-c1ccc(-c3cn(C)c4ccc(OC)cc34)[nH]1)cn2C", "growth, %": 0.411}
{"Molecule": "CCOC(=O)c1c(-c2ccccc2)n2c(=O)cc(C)c3c(O)c(O)cc1c32", "growth, %": 53.4}
{"Molecule": "N#C/C(=C\\c1ccc(Cl)cc1Cl)C(=O)Nc1ncc(Cc2ccc(Cl)c(Cl)c2)s1", "growth, %": 25.5}
{"Molecule": "COc1cc(/C=C\\c2cc(/C=C\\c3ccc(O)c(OC)c3)n(C(=O)CNc3ccc(Cl)cc3)n2)ccc1O", "growth, %": 6.99}
{"Molecule": "CC(C)=CC(=O)N[C@@H]1CC2CCC3C(CC[C@@]4(C)C3CC[C@@H]4C(C)N(C)C)[C@@]2(C)C[C@@H]1O (some centres undefined)", "growth, %": -17.1}
{"Molecule": "CN(C)c1ccc(/C=C/C(=O)c2ccc(Nc3nc(Nc4ccc(F)cc4)nc(Nc4ccc(Cl)cc4)n3)cc2)cc1", "growth, %": 23.7}
{"Molecule": "COc1cc2cc(Oc3ccc(NC(=O)Nc4ccccc4)cc3)c(C)nc2cc1OCCN1CCCCC1", "growth, %": -45.6}
{"Molecule": "Oc1c(I)cc(-c2nc3ccccc3s2)cc1CN(Cc1ccccn1)Cc1ccccn1", "growth, %": 13.1}

# next molecule below
// growth lookup, key: CN1C(=O)N(C)C2C1NC(=S)N2/N=C/C=C/c1ccccc1[N+](=O)[O-] (centres undefined)
14.7
